# Subject Of Test: CYP2C9 (Homo sapiens)
# Sequence (P11712 whole entry): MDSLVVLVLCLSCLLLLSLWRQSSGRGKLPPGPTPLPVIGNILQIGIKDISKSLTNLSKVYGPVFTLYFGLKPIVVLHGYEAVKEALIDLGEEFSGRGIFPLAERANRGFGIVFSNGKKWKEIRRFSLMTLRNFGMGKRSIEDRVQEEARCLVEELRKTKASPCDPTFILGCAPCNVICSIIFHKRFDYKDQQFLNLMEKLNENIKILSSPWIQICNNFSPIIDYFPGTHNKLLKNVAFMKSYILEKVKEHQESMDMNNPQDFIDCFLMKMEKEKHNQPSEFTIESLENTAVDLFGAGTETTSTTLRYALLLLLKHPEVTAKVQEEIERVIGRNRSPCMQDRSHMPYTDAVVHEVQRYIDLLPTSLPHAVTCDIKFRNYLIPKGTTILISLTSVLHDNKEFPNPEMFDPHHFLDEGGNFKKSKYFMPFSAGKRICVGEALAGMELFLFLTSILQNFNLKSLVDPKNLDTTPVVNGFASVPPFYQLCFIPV
# Protocol Text: IC50 and IC50 shift on CYP2C9 marker reaction (diclofenac 4-hydroxylation) in HLM
# Assay type: in vitro ADME
# Design: tissue Corning Inc; host or cells: pooled human liver microsomes (150 donors)
# Condition Info: human, human liver microsomes, pH 7.5, probe diclofenac (4-hydroxylation), 4.73 µM, 30 min pre-incubation in the presence of NADPH
# Experimental: Remaining activity (A, %) was calculated as the ratio of reaction velocities in the inhibited and non-inhibited incubations. IC50 and the steepness of the inhibition curve (H) were estimated by fitting the four-parameter inhibition model to the experimental data (Equation (9)). Maximum (Amax) and baseline activity (A0) were fixed to 100 and 0, respectively. […] (9) A,%=A0+Amax−A0/1+logCInhib/logIC50^H=100/1+logCInhib/logIC50^H […] Supplementary Section S1. […] Two samples were taken […]
Quantity Name: IC50 shift at 30 min
// response body must contain only the number

# Compound, IC50 shift at 30 min
data = [
    ("C[C@@H](c1nc[n+]([O-])cc1F)[C@](O)(Cn1cncn1)c1ccc(F)cc1F [NO, voriconazole N-oxide]", 0.899),
]

Attention now turns to another entry.
Hello, I am looking for reported IC50 shift at 30 min with CYP2C9 (Homo sapiens) for C[C@@H](c1ncnc(O)c1F)[C@](O)(Cn1cncn1)c1ccc(F)cc1F [OH–VRC, hydroxyvoriconazole] . Could you help? 1.01
